# Test system: SmLux
# test.details: Computationally generated LgLux variants expressed in E. coli, tested in lysates with SmLux and substrate 1c
# Format: biochemical
# condition.set: 50 uM substrate 1c, before SmLux peptide addition
# Protocol: LgLux sequences were designed computationally, and their activity measured as depicted schematically in FIG. 45. A library of the computationally generated LgLux variants were expressed in E. coli and tested in lysates. 20 uM of SmLux and 50 uM of substrate 1c was used for the screening. LgLux_4039 sequence is as set forth in SEQ ID NO:2773. […]
// reported Baseline Signal (Normalized by expression) for each item listed
Would you mind answering with just the numeric figure?

5286 (protein) MTPEERIANVRAFYAALASGDLEAAKALFDPGVTITLWDGTTFTSVEEFRAWFEEQFKTSKDALREIESIEVDGDTVRVLVRLTFVRDGEEKVVDLLQLFKFV: 196
5261 (protein) MTPEEIRANVRAFYAALASGDLAAARALFDPGVTITLWDGTTFTSVEEFRAWFEEQFQTSKDALREIESIEVEGDTVRVLVRLTFTRDGVTQEVDLLQLFKFV: 176.8
5107 (protein) MTPEEIKANVEAFYAALASGDLEKAKALFDPGTTITLWDGTTFTSLEEFLAWFEKQFKASKDAKREIVSMKVEGDTVRVLVRLTYTKDGKEQVVDLLQLIKVV: 167.8

Exercise: # lookup: Baseline Signal (Normalized by expression) of 5122 (protein) MTPEEIFANVKAFYAALASGDLAAAKALFDPGTTITLWDGTTFTSLDEFLAWFEKQFKASKDAKREILSMEVEGDTVRVLVRLTYVKDGKEEVVDLLQLIKWV
Solution: 146.2

Exercise: # lookup: Baseline Signal (Normalized by expression) of 5282 (protein) MTPEEIIANVRAFYAALASGDLEAAKALFDPGVTITLWDGTTFTSVEEFRAWFEQQFQTSKDALREIVSIEVEGDVVRVLVRLTFVRDGEEQVVDLLQLFKFV
Solution: 131.8
